# PROTOCOL_DESCRIPTION: self-splicing fitness, log relative to wild type (ln ratio); higher = more splicing; Tetrahymena group I intron in knt gene, E. coli kanamycin selection, DiMSum; sequences stand for … in CUCUCU…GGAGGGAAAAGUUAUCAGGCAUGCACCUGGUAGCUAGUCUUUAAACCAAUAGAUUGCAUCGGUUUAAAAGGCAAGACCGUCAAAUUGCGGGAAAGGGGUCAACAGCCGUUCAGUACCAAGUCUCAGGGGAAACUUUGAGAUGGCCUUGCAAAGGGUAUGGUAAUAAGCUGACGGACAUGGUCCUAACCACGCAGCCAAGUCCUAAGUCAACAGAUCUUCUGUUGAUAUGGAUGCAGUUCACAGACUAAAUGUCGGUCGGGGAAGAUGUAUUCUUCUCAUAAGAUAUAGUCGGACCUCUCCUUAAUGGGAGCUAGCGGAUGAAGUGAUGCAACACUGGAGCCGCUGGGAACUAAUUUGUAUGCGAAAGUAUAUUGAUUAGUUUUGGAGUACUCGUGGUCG;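 also: selection with 25 µg/mL kanamycin versus none on LB agar overnight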
# CONDITION_INFO: 37 °C
READOUT_NAME: self-splicing fitness (ln)

Item: CAGGAGCAAUAUUACGGAUC | self-splicing fitness (ln): -3.84

self-splicing fitness (ln) recorded for this sequence, CCCUAGCAAUAUUACGAACU , is -3.56

Short answer for AUCGAGCAAUAUUACGAUUG : self-splicing fitness (ln) was -3.32

// self-splicing fitness (ln) value for GUUCAGCAAUAUUACGUAGA : -0.394

Note to self: self-splicing fitness (ln) recorded for GGGAAGCAAUAUUACGGUUU was -1.07

Entry under test: UGACAGCAAUAUUACGCUUU . Its self-splicing fitness (ln) was -2.54

Recorded self-splicing fitness (ln) (sequence CUAUAGCAAUAUUACGUUCG ): -0.145

Lab note: measured self-splicing fitness (ln) of AACUAGCAAUAUUACGUCUA was -0.347

// UCUCAGCAAUAUUACGCGGC : self-splicing fitness (ln) value = -1.86

# sequence AUUAAGCAAUAUUACGACAC ; its self-splicing fitness (ln) = -0.46

Form: sequence = CAAAAGCAAUAUUACGAGAG ; self-splicing fitness (ln) = -2.34

self-splicing fitness (ln) reported for this sequence AGCUAGCAAUAUUACGGCUC : -3.06

The reported value for AACUAGCAAUAUUACGACAG in terms of self-splicing fitness (ln) is -0.514

The value of self-splicing fitness (ln) measured for the sequence CCAUAGCAAUAUUACGGCUA turned out to be -1.89

The reported value for UGCAAGCAAUAUUACGGAUA in terms of self-splicing fitness (ln) is -0.698

Notebook: CAGAAGCAAUAUUACGAGAC , self-splicing fitness (ln) read as -1.38

---

# PROTOCOL_DESCRIPTION: self-splicing fitness, log relative to wild type (ln ratio); higher = more splicing; Tetrahymena group I intron in knt gene, E. coli kanamycin selection, DiMSum; sequences stand for … in CUCUCU…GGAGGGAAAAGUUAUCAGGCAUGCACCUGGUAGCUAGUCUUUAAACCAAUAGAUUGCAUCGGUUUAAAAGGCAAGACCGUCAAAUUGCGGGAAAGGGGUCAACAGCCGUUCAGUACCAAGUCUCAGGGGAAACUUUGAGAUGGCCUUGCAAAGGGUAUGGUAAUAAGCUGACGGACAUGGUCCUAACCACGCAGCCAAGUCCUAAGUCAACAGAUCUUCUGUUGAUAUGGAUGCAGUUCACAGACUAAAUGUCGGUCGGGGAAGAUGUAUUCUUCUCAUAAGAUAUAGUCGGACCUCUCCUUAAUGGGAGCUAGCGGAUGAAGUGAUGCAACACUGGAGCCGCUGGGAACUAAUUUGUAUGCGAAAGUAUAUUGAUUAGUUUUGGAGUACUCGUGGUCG
# CONDITION_INFO: 37 °C
Criterion: self-splicing fitness (ln) meeting or surpassing -2. Met: criterion met. Not met: criterion not met.

For this sequence, is measured self-splicing fitness (ln) -2 or higher? UUCUAGCAAUAUUACGAAAG
criterion not met

Hi, just wondering whether CCAGAGCAAUAUUACGUACG shows self-splicing fitness (ln) of -2 or higher.
criterion met

For this sequence, is measured self-splicing fitness (ln) -2 or higher? GUCGAGCAAUAUUACGCUCA
criterion met

Is self-splicing fitness (ln) at least -2? Consider CGUAAGCAAUAUUACGCCUC
criterion met

Hi team, for CUACAGCAAUAUUACGCCUA , is the recorded self-splicing fitness (ln) at or above -2?
criterion not met

# check: self-splicing fitness (ln) of CAAGAGCAAUAUUACGUUUU is greater than or equal to -2
criterion not met

Given CUAAAGCAAUAUUACGCGCC , state whether its self-splicing fitness (ln) is at least -2.
criterion not met

Check the entry GUUUAGCAAUAUUACGCAUU : does self-splicing fitness (ln) equal or exceed -2?
criterion met

Is self-splicing fitness (ln) at least -2? Consider AUAAAGCAAUAUUACGGGGG
criterion not met

Identify whether the reported self-splicing fitness (ln) of the following sequence is -2 or greater: UACGAGCAAUAUUACGAUUA
criterion met

Test whether the sequence ACCGAGCAAUAUUACGCUAU records self-splicing fitness (ln) of -2 or higher.
criterion not met

# check: self-splicing fitness (ln) of CGCAAGCAAUAUUACGGAAG is greater than or equal to -2
criterion met

API: above_or_equal(metric=self-splicing fitness (ln), cutoff=-2) for item CUCAAGCAAUAUUACGGUCU
criterion not met

Given the entry AGAUAGCAAUAUUACGGAUG , answer whether its self-splicing fitness (ln) meets or surpasses -2.
criterion not met

Does CGGCAGCAAUAUUACGAAUA have a reported self-splicing fitness (ln) of at least -2?
criterion not met

Tell me whether self-splicing fitness (ln) is at least -2 here: UUUCAGCAAUAUUACGGGUC
criterion not met
